Origin of measurements: PubChem BioAssay AID1645879

assay: Counterscreen qHTS assay for inhibitors of N-terminal methyltransferase 1 (NTMT1): SPKRIA Counterscreen Assay; conditions: biochemical qHTS; series mostly up to 99.2 µM
Inconclusive results are not listed. The source made the active and inactive calls. Calls follow the shape of the dose curve; as a rule, active = well fitted inhibition curve with a large enough effect; inconclusive = small, poorly fitted or top-dose-only effect; inactive = no such curve, though single readings can be large or run the other way.
Parameter call: string, one of active, inactive

Identify the outcome logged in this assay for the molecule shown: Oc1cccc(Nc2cc(-c3ccccc3)ncn2)c1
active

Record: NC(=O)C1CCN(c2nc(-c3ccc4c(c3)CCO4)cs2)CC1
inactive

Cool, now CCCNC(=O)CSc1c(CCC)cnc2c1c(=O)n(C)c(=O)n2C
inactive

What do we get for Cc1ccnc(NC(=S)N2CCNCC2)c1 ?
inactive

Similarly, CC(C)(C)c1ccc(-c2csc(N3CCC(C(N)=O)CC3)n2)cc1 ?
inactive

Now the molecule COc1ccccc1C(=O)Nc1onc2c1CCCC2
inactive

Also, Nc1nc2c(s1)C(c1ccccc1Cl)CC(=O)N2 (configuration not stated) please.
inactive

Can you handle CCCn1c(/C=C/c2ccccc2)nc2ccccc21 next?
inactive

What about C1CCC(C(CC2CCCCN2)C2CCCCC2)CC1 (configuration not stated) ?
inactive

# repeat for CC(=O)Nc1sc2c(c1-c1ccc3scnc3c1)CCNC2
inactive

Same question, COc1ccc(Nc2ncnc3sc4c(c23)CCCC4)cc1 this time
active

Same for COc1cccc(C(=O)Nc2nc3c(s2)CCCC3)c1
active

###

assay: Counterscreen qHTS assay for inhibitors of N-terminal methyltransferase 1 (NTMT1): SPKRIA Counterscreen Assay; conditions: biochemical qHTS; series mostly up to 99.2 µM
Records with an inconclusive call do not appear. Activity calls are given as the source filed them. Calls follow the shape of the dose curve; as a rule, active = well fitted inhibition curve with a large enough effect; inconclusive = small, poorly fitted or top-dose-only effect; inactive = no such curve, though single readings can be large or run the other way.
property_label: Potency

- molecule: "CN(C)CCC=C1c2ccccc2C=Cc2ccccc21"
  property_label: "Potency"
  assay_value: "inactive"
- molecule: "CNc1sc(-c2cccc3ccccc23)nc1C#N"
  property_label: "Potency"
  assay_value: "inactive"
- molecule: "COc1cc(C)c(/C=C/C(C)=C/C=C/C(C)=C/C(=O)O)c(C)c1C"
  property_label: "Potency"
  assay_value: "inactive"
- molecule: "O=C(O)c1cccc(-c2noc(-c3ccccc3F)n2)c1"
  property_label: "Potency"
  assay_value: "inactive"
- molecule: "O=c1[nH]cnc2nc[nH]c12"
  property_label: "Potency"
  assay_value: "inactive"

Now look at this entry.
Look up Potency: COCCCNC(=O)CSc1c2c(nc3ccc(Cl)cc13)CCCC2
inactive

###

assay: Counterscreen qHTS assay for inhibitors of N-terminal methyltransferase 1 (NTMT1): SPKRIA Counterscreen Assay; settings: biochemical qHTS; series mostly up to 99.2 µM
Inconclusive results are not listed. Active and inactive are the calls of the source. Calls follow the shape of the dose curve; as a rule, active = well fitted inhibition curve with a large enough effect; inconclusive = small, poorly fitted or top-dose-only effect; inactive = no such curve, though single readings can be large or run the other way.
Log the outcome using a class from true (active), false (inactive)

What classification did O=C(Nc1onc2c1CCCC2)c1ccccc1 end up with in this test?
false

Would you mind doing Nc1ccc2nc(-c3ccc(O)cc3)sc2c1 as well?
true

Also CC[C@H](c1ccc(O)cc1)[C@@H](CC)c1ccc(O)cc1 ?
false

Proceed to Clc1ccc2ncc(-c3cccc(NC4CCNC4)n3)n2c1 (stereo not drawn)
false

Cc1c(Cl)ccc2sc(N3CCN(C(=O)C4CC4)CC3)nc12 ?
false

Further, for OCc1cccc(-c2noc(-c3ccccc3F)n2)c1 ?
false

Record: Cc1cc2c(s1)c1cnn(Cc3cccc(C)c3F)c(=O)c1n2C
false

Ok, now CC(C)=CCC/C(C)=C/CC/C(C)=C/CSc1ccccc1C(=O)O
false

Proceed to C[C@]12CCC3=C4CCC(=O)C=C4CC[C@H]3[C@@H]1CC[C@@]2(O)CC#N
false

Please give the result for Cc1nc(C)c(-c2ccc3ncnc(NCc4ncc[nH]4)c3c2)s1 too.
true

COc1cc2ncnc(Nc3cccc(Cl)c3)c2cc1OC , same question.
true

// query: CC(=O)Nc1sc2c(c1-c1nc3ccccc3s1)CNC2
false

Similarly, CCC1(C)CC(=O)NC1=O (stereo not drawn) ?
false

Proceed to O=C(O)c1ccc(-c2noc(-c3cccc(Cl)c3)n2)cc1
false

Here is the next molecule: Oc1ccc(-c2nc(-c3ccc(F)cc3)c(-c3ccncc3)[nH]2)cc1
true

Follow-up item: Cc1cc(C)nc(NC(=S)N2CCN(c3ccncc3)CC2)c1
false

And the next one, O=C(Nc1nc2c(s1)CCCC2)c1ccccc1F ?
true

Quick one: CC(C)c1ccc(Nc2ncnc3c2nc2n3CCCC2)cc1
true

Lookup O=c1c(-c2ccc(O)cc2)coc2cc(O)ccc12
false

Similarly, COc1ccc(C(=O)Nc2noc3ccccc23)cc1 ?
true

Likewise for O=c1cc(-c2ccccc2)oc2ccc(O)cc12 ?
true

Now consider c1cncc(-c2ccc3ncnc(NCc4cccs4)c3c2)c1 .
true

Now the molecule O=c1cc(-c2ccccc2)oc2ccccc12
true

Next: COc1cc(/C=C\c2ccc(O)cc2)cc(OC)c1
false

One more molecule: Cc1cc2c(s1)c1cnn(Cc3cccc(F)c3)c(=O)c1n2C
false

Repeat with O=C(Nc1noc2ccccc12)c1c(F)cccc1F
false

Item: C[C@]12CC[C@@H]3c4ccc(O)cc4CC[C@H]3[C@@H]1C[C@@H](O)[C@@H]2O
false

Similarly, NC(=O)C1CCN(c2nc(-c3cccc4ccccc34)cs2)CC1 ?
false
